Listing: growth of selected compounds
- System: NCI-H322M lung
- Test Name: NCI-60 one-dose screen, 48 h (100 = growth as untreated, 0 = no growth, -100 = all killed)
- Condition: 10 µM unless noted
This is part of a sample that, as a whole, favours compounds with a hit. Of some 83,000 tested, about 20% had one in any assay.
Write it as a number; the unit % goes unstated.

These recorded examples may help you get a feel for the data.
{"columns": ["Line Notation", "Assayed Target", "Units", "growth"],
 "data": [
  ["C=CCn1c(SCC(=O)Nc2ccc(C(=O)/C=C/c3cccc([N+](=O)[O-])c3)cc2)nnc1-c1c[nH]c2ccccc12", "NCI-H322M lung", "%", 91.2],
  ["COc1ccc2c(c1)c(CC(=O)[Se]CC(=O)O)c(C)n2C(=O)c1ccc(Cl)cc1", "NCI-H322M lung", "%", 46.8],
  ["CC(C)(C)c1ccc(-c2nnc(-c3nc4ccccc4nc3Cl)o2)cc1", "NCI-H322M lung", "%", 92.9],
  ["CC(C)c1ccc(NCc2cn(-c3ccc(C(=O)O)cc3)nc2-c2cc(C(F)(F)F)cc(C(F)(F)F)c2)cc1", "NCI-H322M lung", "%", 85.1],
  ["CNC(=O)c1cc(-c2ccc(NC(=S)Nc3cc(C(F)(F)F)cc(C(F)(F)F)c3)cc2)nc2cccnc12", "NCI-H322M lung", "%", 111]
]}

Consider the record given below.
Query block: Entry under review: COc1ccc(-c2nn(-c3ccc(S(C)(=O)=O)cc3)cc2/C=N/O)cc1 . Reported growth?
Result block: 108

* * *

- Tested on: HS 578T breast
- Test Name: NCI-60 one-dose screen, 48 h (100 = growth as untreated, 0 = no growth, -100 = all killed)
- Condition: 10 µM unless noted
- Description: Growth inhibition of the HS 578T human tumor cell line is measured as a screen for anti-cancer activity. Cells are grown in 96 well plates and exposed to the test compound for 48 hours. Compounds are tested at a single concentration, which is 10^-5 M for most compounds. The reported endpoint is percent growth (GI% or GIPRCNT), where numbers from 0 - 100% represent growth inhibition, and numbers from -100% - 0 represent cell death. For example, a value of 40 represents 60% growth inhibition. […]
The panel holds about 83,000 compounds, 20% with a hit somewhere; the sample as a whole holds those more often.
Observed Property: growth (%)
Write it as a number; the unit % goes unstated.

{"columns": ["Compound", "Units", "Reported Result"],
 "data": [
  ["COc1ccccc1-n1cc(C#N)c(N)c1C(=O)c1ccc(C)cc1", "%", 85.6],
  ["Nc1nc(N)c2c(n1)NC(c1ccc(Cl)cc1)CC(c1ccc(Nc3nc(NCCO)nc(N4CCOCC4)n3)cc1)=N2 (stereo not drawn)", "%", 65.9],
  ["COc1ccc(-c2nc3ccc(-c4nnc(SCC(=O)Nc5ccc(C(=O)/C=C/c6ccc(Cl)cc6)cc5)o4)cc3[nH]2)cc1", "%", 90.6]
]}

Query block: Identify the measured growth of COc1cc(-c2nn(C(C)(C)C)cc2-c2ccnc(NCCCNS(=O)(=O)c3ccc(C)cc3)n2)ccc1Cl for HS 578T breast.
Result block: 76.6

Query block: How about this compound: Cc1ccc(S(=O)(=O)N(CC[C@@H]2C[C@H]2c2cc3ccccc3o2)S(=O)(=O)c2ccc(C)cc2)cc1
Result block: 98.6

Query block: How about this compound: CCC(CC)N1C(=O)/C(=c2\sc3n(c2=O)NC2C(N=3)N(CC)C(=O)N2CC)c2ccccc21 (stereo not drawn)
Result block: 73.1

Query block: How about this compound: COc1ccc(C(=O)CSc2nc3c(c(Nc4ccc(S(N)(=O)=O)cc4)n2)CCCC3)cc1
Result block: 110

Query block: How about this compound: COc1ccc(-c2cc(-c3ccc(Cl)cc3)c(C#N)c(=O)n2Cc2ccc(C(=O)O)cc2)cc1
Result block: 31.9

* * *

Listing: growth of selected molecules
- Test system: OVCAR-8 ovarian
- Test Name: NCI-60 one-dose screen, 48 h (100 = growth as untreated, 0 = no growth, -100 = all killed)
- Condition: 10 µM unless noted
Compounds without any hit were thinned out: in the full panel of roughly 83,000, 20% have a hit.
Write it as a number; the unit % goes unstated.

These recorded examples may help you get a feel for the data.
{"columns": ["Molecule", "Reported Result"],
 "data": [
  ["COc1ccc(C2c3sc4c(C)cccc4c3Oc3nc(CC(=O)Nc4ccccc4)[nH]c(=O)c32)cc1 (stereo not drawn)", 99.8],
  ["O=C(Nc1ccc(F)c(F)c1)c1cc(-c2ccc(F)cc2F)ccc1O", 9.13],
  ["COc1ccc2[nH]cc(-c3csc4nc(-c5ccccc5)cn34)c2c1", 24.1],
  ["CCCCCc1ccc(S(=O)(=O)Nc2cccc(-c3csc(NC(=O)CCCCCN4CCN(C)CC4)n3)c2)cc1", 81.9],
  ["C#C[C@]1(O)CC[C@H]2[C@@H]3CC=C4c5sc(-c6ccc7c(c6)OCO7)nc5CC[C@]4(C)[C@H]3CC[C@@]21C", 30.2]
]}

Query block: Entry under review: CC(=O)c1cc(C(=O)N2c3ccccc3Sc3ccccc32)n2ccc3ccccc3c12 . Reported growth?
Result block: 32.7

Query block: How about this molecule: COc1ccccc1-n1cc(C#N)c(N)c1C(=O)c1ccc(C)cc1
Result block: 95

Query block: How about this molecule: CNC(=O)c1cc(-n2ccc3cc(NC(=O)Nc4ccc(N5CCOCC5)c(C(F)(F)F)c4)ccc32)ccn1
Result block: 60.6

Query block: How about this molecule: O=C(CSc1nc2ccccc2c(=O)n1-c1ccccc1)Nc1cccc(C(=O)/C=C/c2ccccc2Cl)c1
Result block: 99.5

Query block: How about this molecule: C/C(=N\O)[C@H]1C[C@]23CC[C@]4(C)[C@H](CC[C@@H]5[C@@]6(C)CC/C(=N/O)C(C)(C)[C@@H]6CC[C@]54C)[C@H]2[C@H](C)C1(C)OC3
Result block: 106

Query block: How about this molecule: COc1ccc(-c2cc(-c3ccc(Cl)cc3)c(C#N)c(=O)n2Cc2ccc(C(=O)O)cc2)cc1
Result block: 99

* * *

- Tested on: SN12C renal
- Test Name: NCI-60 one-dose screen, 48 h (100 = growth as untreated, 0 = no growth, -100 = all killed)
- Condition: 10 µM unless noted
The panel holds about 83,000 compounds, 20% with a hit somewhere; the sample as a whole holds those more often.
// map growth to label using low range (below 50%), mid range (50% to below 90%), high range (90% or more)

See these solved cases before continuing.
{"columns": ["Molecule", "Assigned Category"],
 "data": [
  ["CS(=O)(=O)Nc1cc(-c2ccc3ncc(C#N)c(NCc4cccc(F)c4)c3c2)cnc1Cl", "low range"],
  ["N#Cc1ccccc1Cn1c2nc(=N)c3ccccc3c-2nc2ccccc21", "mid range"],
  ["CC(=O)c1cc(C(=O)N2c3ccccc3Sc3ccccc32)n2ccc3ccccc3c12", "mid range"]
]}

Query block: Exam item: assign C=CCOc1cccc(/C=C2\SC(=S)N(C3CC(=O)N(c4ccc(Br)cc4)C3=O)C2=O)c1 (centres undefined) to the correct category.
Result block: high range

Query block: How about this molecule: CS(=O)(=O)Nc1cc(-c2ccc3ncc(C#N)c(NCc4ccccc4O)c3c2)cnc1Cl
Result block: low range

Query block: How about this molecule: CCN1CCN(Cc2ccc(C(=O)Nc3ccc(C)c(Oc4ccc(-c5[nH]nc6ncnc(N)c56)cc4)c3)cc2C(F)(F)F)CC1
Result block: mid range

Query block: How about this molecule: Cc1ccc(-c2cc3nc(C(Cl)Cl)nc(C)n3n2)cc1
Result block: high range

* * *

Listing: growth of selected compounds
- Tested on: OVCAR-8 ovarian
- Test Name: NCI-60 one-dose screen, 48 h (100 = growth as untreated, 0 = no growth, -100 = all killed)
- Condition: 10 µM unless noted
About 83,000 compounds went through this panel and 20% of them were active in at least one assay; those are over-represented in the sample as a whole.
Write it as a number; the unit % goes unstated.

Query block: Entry under review: C#CCn1cccc1CNc1ccc(OC)cc1 . Reported growth?
Result block: -28

Query block: How about this compound: COc1ccc(C(=O)CSc2nc3c(c(Nc4ccc(S(N)(=O)=O)cc4)n2)CCCC3)cc1
Result block: 92.3

Query block: How about this compound: C#CCNC1CCC(c2csc(C#C)n2)=C1C (centres undefined)
Result block: 40.5

Query block: How about this compound: O=C(Nc1cccc(C(F)(F)F)c1)c1cc(-c2ccc(F)cc2F)ccc1O
Result block: 11.5

Query block: How about this compound: CC(=O)c1nnn(-c2c(C(=O)n3nc(C)cc3C)sc(=S)n2-c2ccccc2)c1C
Result block: 103

Query block: How about this compound: CNC(=O)c1cc(Oc2ccc3nc(NC(=O)c4cccc(OC(F)(F)F)c4)sc3c2)ccn1
Result block: 81.7
